Values compiled from patent EP4722246A1.

Recorded pEC50 for the following binders
# system: human TEM8 on CHO-hTEM8 cells (human, UniProt Q9H6X2 33-564)
# Sequence (Q9H6X2 33-564): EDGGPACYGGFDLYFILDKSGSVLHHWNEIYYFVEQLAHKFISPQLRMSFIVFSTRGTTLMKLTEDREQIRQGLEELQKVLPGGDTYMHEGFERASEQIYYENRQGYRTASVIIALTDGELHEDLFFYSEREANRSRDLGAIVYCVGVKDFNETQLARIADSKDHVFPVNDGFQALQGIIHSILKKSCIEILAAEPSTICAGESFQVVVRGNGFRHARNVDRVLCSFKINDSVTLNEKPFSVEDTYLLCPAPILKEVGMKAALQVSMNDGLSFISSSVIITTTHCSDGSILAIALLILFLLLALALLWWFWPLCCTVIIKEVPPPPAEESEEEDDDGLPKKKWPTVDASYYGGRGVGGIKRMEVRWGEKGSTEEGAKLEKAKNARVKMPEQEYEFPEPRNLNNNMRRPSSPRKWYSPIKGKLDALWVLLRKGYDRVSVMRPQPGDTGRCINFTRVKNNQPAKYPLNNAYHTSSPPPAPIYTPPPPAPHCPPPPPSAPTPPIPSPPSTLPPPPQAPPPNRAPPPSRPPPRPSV
# measurement notes: FACS on CHO-hTEM8 cells
Keep it numeric: pEC50 is minus log10 of the concentration in mol/L.

3B3 (antibody, human IgG1, kappa, L234A L235A, V domains shown, Full IgG made in CHO cells, kappa constant region; also called TEM8-3B3) VH: EVQLVQSGGGLVKPGGSLRLSCAASGFTFSSYSMNWVRQAPGKGLEWVSSISSSSSYIYYADSVKGRFTISRDNAKNSLYLQMNSLRAEDTAVYYCARVRPPYGMDVWGQGTLVTVSS VL: NIQMTQSPSSVSASVGDTVTISCRASQGISNWLGWYQQRPGEAPKLLIYAASHLQSGVPSRFSGSGSGTDFVLTITSLQPEDFATYYCQQSNSFPLAFGGGTKLEIKR    8.82
6A6Q (antibody, human IgG1, lambda, L234A L235A, V domains shown, Full IgG made in CHO cells, lambda constant region; Variant of 6A6 whose light chain glycosylation site NRS was mutated to QRS; also called TEM8-6A6Q) VH: EVQLVESGGGVVQPGGSLRLSCAASGFTFDDYAMHWVRQAPGKGLEWVSLISGDGGSTYYADSVKGRFTISRDNSKNSLYLQMNSLKASDTAMYYCARPRWGRYSSSWPFDYWGQGTLVTVSS VL: QSALTQPASVSGSPGQSITISCTGTSSDVGTYNYVSWYQQHPGKAPKLMIYDVTDRPSGISNRFSGSKSGNTASLTISGLQAEDEGNYYCSSYTSQRSWVFGGGTKLTVLG    9.20
7E3 (antibody, human IgG1, lambda, L234A L235A, V domains shown, Full IgG made in CHO cells, lambda constant region; also called TEM8-7E3) VH: QVQLVESGGGLVNPGGSLRLSCAVSGFTSSGFSINWVRQAPGKGLEWVSSISGIGDSIFYADSVKGRFTISRDNAKNLVFLQMNSVKAEDTAVYYCVRDKWGWGTYSLFDYWGQGTLVTVSS VL: QAVLTQPPSASGTPGQRVTISCSGSSSNIASNVVSWYQQLPGTAPKVLIYSNNRRPSGVPDRFSGSKSGASASLAISGLQSDDETHYYCAAWDDSLKGPVFGGGTQLTVLG    9.12

Now for the binder whose pEC50 we want.
input: Endpoint output: pEC50 of 11B7 (antibody, human IgG1, lambda, L234A L235A, V domains shown, Full IgG made in CHO cells, lambda constant region; also called TEM8-11B7) VH: QVQLVQSGGGVVQPGRPLRLSCAASGFNLGSYAMSWVRQAPGKGLEWVSAISGSGGSTYYADSVKGRFTISRDNSKNTLYLQMNSLRAEDTAVYYCAKILGPGNLNYYYYYGMDVWGQGTTVTVSS VL: SSELTQDPAVSVALGQTVRITCQGDSLRNSYASWYQQKPGQAPVLVIYGNNNRPSGIPDRVSGSRSGNTASLTITGAQAEDEADYYCNSRDSSGNHVVFGGGTELTVLG . Value?
output: 9.07
